# subject of test: T1, HLA-DR molecule encoded by the allele HLA-DRB1*1301 (human)
# T1 chain 1: not shown
# T1 chain 2: not shown
# experiment: competition ELISA, nonbiotinylated tracer peptide against its biotinylated form
Ends that are not written are not given here.
recorded metric: pIC50
Please express pIC50 as -log10 of the molar concentration.

Inquiry: What pIC50 value was documented for this binder, TERVRLVTRHIYNREE (not fully specified) [B1 21-36 (nonbiotinylated peptide)] ?
Reply text: 6.49
